# Test system: OCUB-M (Breast Carcinoma);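 further: after 72 h of two-drug dosing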
# protocol_notes: Bliss excess, mean over the matrix (fraction); higher = more synergy
Measured Bliss excess of individual entries
I'd appreciate a reply containing only the number, no unit.

compound="Cc1cc2ncnn2cc1Nc1ncc2c(n1)n(C1CCOCC1)c(=O)n2C [AZD7648] + CN(C)CCCOc1ccc(-c2ccc3ncc4c(c3c2)n(C2CCOCC2)c(=O)n4C)cn1 [AZD0156] (first compound max 10 µM, 7x7, partner max 1 µM)" observed_property="Bliss excess" numeric_result=-0.0055
compound="N#Cc1cnc(Nc2cc(NC[C@H]3CNCCO3)c(C(F)(F)F)cn2)cn1 [SRA737] + Nc1ccn([C@@H]2O[C@H](CO)[C@@H](O)C2(F)F)c(=O)n1 [Gemcitabine] (first compound max 10 µM, 7x7, partner max 0.3 µM)" observed_property="Bliss excess" numeric_result=0.0085
compound="CS(=O)(=O)CCNCc1ccc(-c2ccc3ncnc(Nc4ccc(OCc5cccc(F)c5)c(Cl)c4)c3c2)o1 [Lapatinib] + Cn1cnc2c(F)c(Nc3ccc(Br)cc3Cl)c(C(=O)NOCCO)cc21 [Selumetinib] (first compound max 10 µM, 7x7, partner max 10 µM)" observed_property="Bliss excess" numeric_result=-0.0507
compound="CC1(C)CCC(CN2CCN(c3ccc(C(=O)NS(=O)(=O)c4ccc(NCC5CCOCC5)c([N+](=O)[O-])c4)c(Oc4cnc5[nH]ccc5c4)c3)CC2)=C(c2ccc(Cl)cc2)C1 [Venetoclax] + C=CCn1c(=O)c2cnc(Nc3ccc(N4CCN(C)CC4)cc3)nc2n1-c1cccc(C(C)(C)O)n1 [AZD1775] (first compound max 1 µM, partner max 1 µM)" observed_property="Bliss excess" numeric_result=0.0062

input: Entry under review: CN(C)CCCOc1ccc(-c2ccc3ncc4c(c3c2)n(C2CCOCC2)c(=O)n4C)cn1 [AZD0156] + CCN(CCO)CCCOc1ccc2c(Nc3cc(CC(=O)Nc4cccc(F)c4)[nH]n3)ncnc2c1 [AZD2811] (first compound max 1 µM, 7x7, partner max 1 µM) . Reported Bliss excess?
output: -0.0736

input: Entry under review: Cc1c2c(nn1C)CSCc1cc(n(C)n1)CSc1cc(c3ccccc3c1)OCCCc1c(C(=O)O)n(C)c3c-2c(Cl)ccc13 [AZD5991] + CCN(CCO)CCCOc1ccc2c(Nc3cc(CC(=O)Nc4cccc(F)c4)[nH]n3)ncnc2c1 [AZD2811] (first compound max 1 µM, 7x7, partner max 1 µM) . Reported Bliss excess?
output: -0.0116

input: Entry under review: Cc1c2c(nn1C)CSCc1cc(n(C)n1)CSc1cc(c3ccccc3c1)OCCCc1c(C(=O)O)n(C)c3c-2c(Cl)ccc13 [AZD5991] + Cc1cc2ncnn2cc1Nc1ncc2c(n1)n(C1CCOCC1)c(=O)n2C [AZD7648] (first compound max 1 µM, 7x7, partner max 10 µM) . Reported Bliss excess?
output: -0.0448
